The origin of these recorded values is the supplement of paper PMC11061612.

- System: A172 (Glioblastoma);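 also: after 72 h of two-drug dosing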
- test.details: Bliss excess, mean over the matrix (fraction); higher = more synergy
measure.name: Bliss excess
Lab note: jot the number down without any unit.

INSERT INTO assay_data (compound, measure_name, data_value) VALUES
  ('CN(CCO)CC[C@H](CSc1ccccc1)Nc1ccc(S(=O)(=O)NC(=O)c2ccc(N3CCC([C@@H](O)c4ccccc4-c4ccc(Cl)cc4)CC3)cc2)cc1S(=O)(=O)C(F)(F)F [AZD4320] + C[C@@H]1COCCN1C2=NC(=NC(=C2)C3(CC3)[S@](=N)(=O)C)C4=C5C=CNC5=NC=C4 [AZD6738] (first compound max 1 µM, 7x7, partner max 10 µM)', 'Bliss excess', -0.0748),
  ('CS(=O)(=O)CCNCc1ccc(-c2ccc3ncnc(Nc4ccc(OCc5cccc(F)c5)c(Cl)c4)c3c2)o1 [Lapatinib] + C[C@@H](Oc1cc(-c2cnn(C3CCNCC3)c2)cnc1N)c1c(Cl)ccc(F)c1Cl [Crizotinib] (first compound max 10 µM, 7x7, partner max 10 µM)', 'Bliss excess', -0.0564),
  ('COc1cccc2c1C(=O)c1c(O)c3c(c(O)c1C2=O)C[C@@](O)(C(=O)CO)C[C@@H]3O[C@H]1C[C@H](N)[C@H](O)[C@H](C)O1 [Doxorubicin] + Cc1cc2ncnn2cc1Nc1ncc2c(n1)n(C1CCOCC1)c(=O)n2C [AZD7648] (first compound max 1 µM, 7x7, partner max 10 µM)', 'Bliss excess', 0.0789),
  ('Cc1c2c(nn1C)CSCc1cc(n(C)n1)CSc1cc(c3ccccc3c1)OCCCc1c(C(=O)O)n(C)c3c-2c(Cl)ccc13 [AZD5991] + CCN(CCO)CCCOc1ccc2c(Nc3cc(CC(=O)Nc4cccc(F)c4)[nH]n3)ncnc2c1 [AZD2811] (first compound max 1 µM, 7x7, partner max 1 µM)', 'Bliss excess', -0.0101);

Please turn your attention to the following entry.
-- ask Look at this compound and give its reported Bliss excess. NC1(C(=O)N[C@@H](CCO)c2ccc(Cl)cc2)CCN(c2ncnc3[nH]ccc23)CC1 [Capivasertib] + Cn1cnc2c(F)c(Nc3ccc(Br)cc3Cl)c(C(=O)NOCCO)cc21 [Selumetinib] (first compound max 10 µM, 7x7, partner max 10 µM)
-- reply -0.008
